experimental.details: In vivo brain exposure study in mouse
measurement.context: po; mouse CD-1 male, 10 mg/kg p.o., cassette, brain, 2 h; read-out: Brain-2 h
experimental.readout: concentration at 2 h (ng/g)

# structure.smiles, unit.descriptor, concentration at 2 h
data = [
    ("Nc1ncnc2c1ccn2[C@@H]1O[C@H]([C@H](O)c2ccc3c(c2)CC3)[C@@H](O)[C@H]1O", "ng/g", 244),
    ("Nc1ncnc2c1c(F)cn2[C@@H]1O[C@H]([C@H](O)c2ccc3c(c2)CC3)[C@@H](O)[C@H]1O", "ng/g", 183),
]

---

experimental.details: In vivo pharmacokinetic study in rat
measurement.context: Sprague-Dawley (SD), blood, iv; rat SD female, i.v. 1 mg/kg; read-out: Vss
experimental.readout: Vd (L/kg)
Please give a number only; it is taken to be in L/kg.

Ask: Consider the compound `Cc1ncnc2c1ccn2[C@@H]1O[C@H]([C@H](O)c2ccc3c(c2)CC3)[C@@H](O)[C@H]1O` and give its measured Vd.
Result: 2.71
